Target: α1G T-type calcium channel (Homo sapiens)
Construct: host or cells: HEK293
Sequence (O43497 whole entry): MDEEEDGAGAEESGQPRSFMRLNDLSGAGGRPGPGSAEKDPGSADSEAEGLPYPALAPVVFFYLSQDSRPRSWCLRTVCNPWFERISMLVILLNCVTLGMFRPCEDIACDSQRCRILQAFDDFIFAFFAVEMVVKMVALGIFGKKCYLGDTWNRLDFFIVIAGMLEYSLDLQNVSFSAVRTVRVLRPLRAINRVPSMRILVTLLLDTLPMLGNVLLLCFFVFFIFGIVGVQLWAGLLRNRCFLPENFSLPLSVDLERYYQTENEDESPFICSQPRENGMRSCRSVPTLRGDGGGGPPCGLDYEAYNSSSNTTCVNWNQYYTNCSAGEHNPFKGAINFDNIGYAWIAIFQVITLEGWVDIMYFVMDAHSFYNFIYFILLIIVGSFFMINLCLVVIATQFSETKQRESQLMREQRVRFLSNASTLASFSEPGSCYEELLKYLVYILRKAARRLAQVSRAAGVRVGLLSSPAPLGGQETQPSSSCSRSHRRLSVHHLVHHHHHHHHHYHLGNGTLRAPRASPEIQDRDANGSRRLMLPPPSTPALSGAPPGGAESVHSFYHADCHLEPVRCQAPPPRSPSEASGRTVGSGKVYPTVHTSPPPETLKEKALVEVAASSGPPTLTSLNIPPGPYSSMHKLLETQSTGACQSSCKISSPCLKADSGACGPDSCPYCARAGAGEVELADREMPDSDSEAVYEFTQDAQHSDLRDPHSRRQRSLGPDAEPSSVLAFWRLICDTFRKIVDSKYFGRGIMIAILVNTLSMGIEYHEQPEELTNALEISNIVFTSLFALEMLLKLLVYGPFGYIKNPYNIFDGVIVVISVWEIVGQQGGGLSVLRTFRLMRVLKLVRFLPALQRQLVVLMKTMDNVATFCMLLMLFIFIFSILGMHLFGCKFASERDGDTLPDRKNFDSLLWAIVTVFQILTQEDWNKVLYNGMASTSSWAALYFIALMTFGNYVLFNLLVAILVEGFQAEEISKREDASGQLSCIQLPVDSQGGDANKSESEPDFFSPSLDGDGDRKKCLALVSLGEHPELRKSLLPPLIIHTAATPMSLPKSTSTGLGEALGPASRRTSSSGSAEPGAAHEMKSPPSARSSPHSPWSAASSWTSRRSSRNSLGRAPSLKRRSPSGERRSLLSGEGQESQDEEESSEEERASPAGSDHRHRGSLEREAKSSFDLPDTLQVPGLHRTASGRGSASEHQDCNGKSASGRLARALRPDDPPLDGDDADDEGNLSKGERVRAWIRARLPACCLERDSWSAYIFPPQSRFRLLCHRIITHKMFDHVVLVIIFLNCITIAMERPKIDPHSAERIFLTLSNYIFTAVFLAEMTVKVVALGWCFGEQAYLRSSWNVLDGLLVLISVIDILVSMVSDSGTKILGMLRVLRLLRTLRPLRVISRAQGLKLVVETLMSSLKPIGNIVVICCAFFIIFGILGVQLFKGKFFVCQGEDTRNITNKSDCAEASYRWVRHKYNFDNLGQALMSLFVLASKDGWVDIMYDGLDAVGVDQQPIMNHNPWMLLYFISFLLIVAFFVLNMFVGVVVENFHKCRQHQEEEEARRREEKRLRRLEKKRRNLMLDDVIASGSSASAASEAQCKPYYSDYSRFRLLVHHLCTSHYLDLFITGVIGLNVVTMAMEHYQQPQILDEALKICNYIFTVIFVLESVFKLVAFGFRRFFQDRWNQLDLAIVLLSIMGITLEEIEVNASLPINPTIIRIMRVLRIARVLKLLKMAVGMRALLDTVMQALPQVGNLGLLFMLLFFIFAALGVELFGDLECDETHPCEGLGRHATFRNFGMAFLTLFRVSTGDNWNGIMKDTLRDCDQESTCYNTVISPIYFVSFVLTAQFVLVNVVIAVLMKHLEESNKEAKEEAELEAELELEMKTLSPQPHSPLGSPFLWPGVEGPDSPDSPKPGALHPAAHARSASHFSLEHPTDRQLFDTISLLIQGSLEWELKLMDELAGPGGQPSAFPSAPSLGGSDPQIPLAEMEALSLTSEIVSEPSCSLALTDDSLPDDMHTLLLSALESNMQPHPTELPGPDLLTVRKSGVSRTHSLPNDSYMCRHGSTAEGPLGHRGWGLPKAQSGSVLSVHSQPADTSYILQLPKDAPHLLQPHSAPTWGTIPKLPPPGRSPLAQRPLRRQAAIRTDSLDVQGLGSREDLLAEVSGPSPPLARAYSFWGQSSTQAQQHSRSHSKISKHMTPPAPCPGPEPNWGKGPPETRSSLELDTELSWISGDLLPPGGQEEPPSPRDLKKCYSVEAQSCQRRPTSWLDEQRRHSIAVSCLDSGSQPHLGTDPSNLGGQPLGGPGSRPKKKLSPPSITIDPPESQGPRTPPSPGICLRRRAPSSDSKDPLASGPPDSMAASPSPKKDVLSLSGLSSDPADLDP
Assay: Assay for % inhibiting activity against T-type calcium channel using FDSS6000 (fluo-3 calcium imaging, KCl activation)
Format: cell-based
Conditions: HEK293, 10 μM; HEK293 cells stably expressing α1G T-type calcium channel and Kir2.1; compounds of the examples; read-out: FDSS (% inhibition)/10uM
Where a name gives a salt, the structure may show the parent alone.
QUANTITY KIND: inhibition at 10 µM (%)
A number alone suffices; assume %.

QUERY: Entry CN1C(=NC2CCCCCC2)SCC1C(=O)Nc1ccc(F)c(F)c1 (stereo not shown) [KHG24627] has what inhibition at 10 µM?
RESULT: 48.5

QUERY: Entry CN1C(=NC2CCCC2)SCC1CC(=O)Nc1ccc(F)cc1Cl.Cl (stereo not shown) [KHG24095, hydrochloride] has what inhibition at 10 µM?
RESULT: 30.5

QUERY: Entry CCCCN1C(=NC2CCCCC2)SCC1CC(=O)Nc1ccc(C)cc1.Cl (stereo not shown) [KHG24285, hydrochloride] has what inhibition at 10 µM?
RESULT: 46

QUERY: Entry CN1C(=NC2C3CC4CC(C3)CC2C4)SCC1CC(=O)Nc1ccc(F)cc1.Cl (stereo not shown) [KHG24842, hydrochloride] has what inhibition at 10 µM?
RESULT: 59.8

QUERY: Entry CN1C(=NC2CCCC2)SCC1CC(=O)Nc1ccc(Oc2ccccc2)cc1.Cl (stereo not shown) [KHG24099, hydrochloride] has what inhibition at 10 µM?
RESULT: 58.2

QUERY: Entry CCN1C(=NC2CCCCC2)SCC1CC(=O)Nc1ccc(Oc2ccccc2)cc1.Cl (stereo not shown) [KHG24276, hydrochloride] has what inhibition at 10 µM?
RESULT: 42.8

QUERY: Entry CC1SC(=NC2CCCCC2)N(C)C1CC(=O)Nc1ccc(F)cc1.Cl (stereo not shown) [KHG24525, hydrochloride] has what inhibition at 10 µM?
RESULT: 31.5

QUERY: Entry Cc1cc(NC(=O)CC2CSC(=NC3CCCCC3)N2C)ccc1Br.Cl (stereo not shown) [KHG24111, hydrochloride] has what inhibition at 10 µM?
RESULT: 67.7

QUERY: Entry Cl.O=C(CC1CSC(=NC23CC4CC(CC(C4)C2)C3)N1C1CC1)Nc1cc(Cl)ccc1F (stereo not shown) [KHG24802, hydrochloride] has what inhibition at 10 µM?
RESULT: 62.4

QUERY: Entry CN1C(=NC2CCCCC2)SCC1CC(=O)Nc1ccc(F)cc1F.Cl (stereo not shown) [KHG24081, hydrochloride] has what inhibition at 10 µM?
RESULT: 38.3

QUERY: Entry CCCN1C(=NC23CC4CC(CC(C4)C2)C3)SCC1CC(=O)Nc1ccc(C(C)C)cc1.Cl (stereo not shown) [KHG24807, hydrochloride] has what inhibition at 10 µM?
RESULT: 59.7

QUERY: Entry CC(C)c1ccc(NC(=O)CC2C(C)SC(=NC3CCCCC3)N2C)cc1.Cl (stereo not shown) [KHG24526, hydrochloride] has what inhibition at 10 µM?
RESULT: 42.3

QUERY: Entry CC1SC(=NC2CCCCCC2)N(C)C1CC(=O)Nc1ccc(C(C)(C)C)cc1.Cl (stereo not shown) [KHG24521, hydrochloride] has what inhibition at 10 µM?
RESULT: 54.3

QUERY: Entry COc1ccc(NC(=O)CC2CSC(=NC3CCCCC3)N2C)cc1OC.Cl (stereo not shown) [KHG24090, hydrochloride] has what inhibition at 10 µM?
RESULT: 32.1

QUERY: Entry CC1SC(=NC2CCCCCC2)N(C)C1CC(=O)Nc1ccc(OC(F)(F)F)cc1.Cl (stereo not shown) [KHG24647, hydrochloride] has what inhibition at 10 µM?
RESULT: 62.4

QUERY: Entry Cc1ccc(NC(=O)CC2C(C)SC(=NC3CCCCCC3)N2C)cc1.Cl (stereo not shown) [KHG24639, hydrochloride] has what inhibition at 10 µM?
RESULT: 48.5

QUERY: Entry CCc1ccc(NC(=O)CC2CSC(=NC34CC5CC(CC(C5)C3)C4)N2C2CC2)cc1.Cl (stereo not shown) [KHG24799, hydrochloride] has what inhibition at 10 µM?
RESULT: 63.4

QUERY: Entry CN1C(=NC2CCCCCC2)SCC1C(=O)Nc1cc(F)ccc1F.Cl (stereo not shown) [KHG24626, hydrochloride] has what inhibition at 10 µM?
RESULT: 42.6

QUERY: Entry CCCN1C(=NC23CC4CC(CC(C4)C2)C3)SCC1CC(=O)Nc1ccc(C(F)(F)F)cc1.Cl (stereo not shown) [KHG24809, hydrochloride] has what inhibition at 10 µM?
RESULT: 57.3

QUERY: Entry CCCCc1ccc(NC(=O)CC2CSC(=NC34CC5CC(CC(C5)C3)C4)N2CCC)cc1.Cl (stereo not shown) [KHG24808, hydrochloride] has what inhibition at 10 µM?
RESULT: 37.6

QUERY: Entry CN1C(=NC2CCCCCC2)SCC1CC(=O)NCc1ccc(N)cc1 (stereo not shown) [KHG24449, hydrochloride] has what inhibition at 10 µM?
RESULT: 40.5

QUERY: Entry CCCCc1ccc(NC(=O)CC2CSC(=NC3CCCCC3)N2C2CC2)cc1.Cl (stereo not shown) [KHG24270, hydrochloride] has what inhibition at 10 µM?
RESULT: 62.6

QUERY: Entry CN1C(=NC2CCCCCC2)SCC1C(=O)NCc1cccc(Cl)c1.Cl (stereo not shown) [KHG24336, hydrochloride] has what inhibition at 10 µM?
RESULT: 60.1

QUERY: Entry CN1C(=NC23CC4CC(CC(C4)C2)C3)SCC1CC(=O)Nc1cc(Cl)cc(Cl)c1.Cl (stereo not shown) [KHG24417, hydrochloride] has what inhibition at 10 µM?
RESULT: 59.1

QUERY: Entry CN1C(=NCCc2ccccc2)SCC1CC(=O)Nc1ccc(Oc2ccccc2)cc1.Cl (stereo not shown) [KHG24224, hydrochloride] has what inhibition at 10 µM?
RESULT: 32

QUERY: Entry CN1C(=NC2CCCC2)SCC1CC(=O)NCc1ccc(Cl)cc1.Cl (stereo not shown) [KHG24157, hydrochloride] has what inhibition at 10 µM?
RESULT: 36.7

QUERY: Entry CC(C)N1C(=NC23CC4CC(CC(C4)C2)C3)SCC1CC(=O)Nc1ccc(CF)cc1.Cl (stereo not shown) [KHG24829, hydrochloride] has what inhibition at 10 µM?
RESULT: 69

QUERY: Entry CN1C(=NC2CCCCC2)SCC1CC(=O)Nc1cccc(F)c1.Cl (stereo not shown) [KHG24109, hydrochloride] has what inhibition at 10 µM?
RESULT: 48.4

QUERY: Entry CCCN1C(=NC2CCCCC2)SCC1CC(=O)Nc1ccc(C)c(Cl)c1.Cl (stereo not shown) [KHG24405, hydrochloride] has what inhibition at 10 µM?
RESULT: 68.4

QUERY: Entry CCN1C(=NC2CCCCC2)SCC1CC(=O)Nc1cc([N+](=O)[O-])ccc1F.Cl (stereo not shown) [KHG24278, hydrochloride] has what inhibition at 10 µM?
RESULT: 53.8

QUERY: Entry COc1ccc(CNC(=O)C2CSC(=NC3CCCCCC3)N2C)cc1.Cl (stereo not shown) [KHG24339, hydrochloride] has what inhibition at 10 µM?
RESULT: 44.2
